system: HepG2; assay: drug sensitivity score (DSS) for viability; higher = more toxic; extreme values may be limits of the assay; details: 72 h
Endpoint: drug sensitivity score

[[record]]
compound = "CC[C@@H]1/C=C(\\C)C[C@H](C)C[C@H](OC)[C@H]2O[C@@](O)(C(=O)C(=O)N3CCCC[C@H]3C(=O)O[C@H](/C(C)=C/[C@@H]3CC[C@@H](O)[C@H](OC)C3)[C@H](C)[C@@H](O)CC1=O)[C@H](C)C[C@@H]2OC"
target_desc = "HepG2"
observed_measurement = 0

[[record]]
compound = "O=C(O)Cc1ccc(OCc2ccccc2)c(Cl)c1"
target_desc = "HepG2"
observed_measurement = 0

[[record]]
compound = "CCCC(=O)Nc1ccc(OCC(O)CNC(C)C)c(C(C)=O)c1 (stereo unspecified)"
target_desc = "HepG2"
observed_measurement = 0

[[record]]
compound = "N[C@@H](CC(=O)N1CCn2c(nnc2C(F)(F)F)C1)Cc1cc(F)c(F)cc1F"
target_desc = "HepG2"
observed_measurement = 0

[[record]]
compound = "CCN1CCCC(OC(=O)C(c2ccccc2)c2ccccc2)C1 (stereo unspecified) [piperidolate]"
target_desc = "HepG2"
observed_measurement = 0

[[record]]
compound = "CCC(C)CCCC(=O)N[C@@H](CCN)C(=O)N[C@H](C(=O)N[C@@H](CCN)C(=O)N[C@H]1CCNC(=O)[C@H]([C@@H](C)O)NC(=O)[C@H](CCN)NC(=O)[C@H](CCN)NC(=O)[C@H](CC(C)C)NC(=O)[C@@H](CC(C)C)NC(=O)[C@H](CCN)NC1=O)[C@@H](C)O (stereo partly specified)"
target_desc = "HepG2"
observed_measurement = 0

[[record]]
compound = "CNCC(=O)O"
target_desc = "HepG2"
observed_measurement = 0

[[record]]
compound = "N=C(N)NCc1cccc(I)c1"
target_desc = "HepG2"
observed_measurement = 6.1

[[record]]
compound = "O=C(O)C[C@H]1CC[C@H](c2ccc(NC(=O)c3nnc(Nc4ccc(F)c(F)c4)o3)cc2)CC1"
target_desc = "HepG2"
observed_measurement = 0

[[record]]
compound = "CCc1c2c(nc3ccc(OC(=O)N4CCC(N5CCCCC5)CC4)cc13)-c1cc3c(c(=O)n1C2)COC(=O)[C@]3(O)CC"
target_desc = "HepG2"
observed_measurement = 14.4

[[record]]
compound = "COc1cc(-n2cnc3cc(-c4ccc(Cl)cc4)sc3c2=O)ccc1OCCN1CCCC1"
target_desc = "HepG2"
observed_measurement = 2

[[record]]
compound = "COc1ccc2nc3c(c(N)c2c1)CCCC3"
target_desc = "HepG2"
observed_measurement = 2.6

[[record]]
compound = "Fc1ccc(-c2cncc(CN3CCN(c4cccc5c4OCCO5)CC3)c2)cc1"
target_desc = "HepG2"
observed_measurement = 0

[[record]]
compound = "CO[C@@H]1[C@H](N(C)C(=O)c2ccccc2)C[C@H]2O[C@]1(C)n1c3ccccc3c3c4c(c5c6ccccc6n2c5c31)C(=O)NC4"
target_desc = "HepG2"
observed_measurement = 9.3

[[record]]
compound = "CC(C)(C)n1nc(-c2ccc(Cl)cc2)c2c(N)ncnc21"
target_desc = "HepG2"
observed_measurement = 0

[[record]]
compound = "O=C1N=C2SCCN2C(=O)C1Cc1ccc(Cl)cc1 (stereo unspecified)"
target_desc = "HepG2"
observed_measurement = 0


---

tested on: Calu-3; assay: cell viability relative to DMSO; higher = less toxic; settings: 72 h; 100 nM
Parameter: cell viability. Scope: all listed entries.
Endpoint: cell viability

[[record]]
molecule = "NC1(c2ccc(-c3nc4ccn5c(=O)[nH]nc5c4cc3-c3ccccc3)cc2)CCC1"
endpoint = "cell viability"
observed_measurement = "84.1%"

[[record]]
molecule = "C[C@@H]1c2ccccc2CN1CC1=NCCN1 (racemic)"
endpoint = "cell viability"
observed_measurement = "102%"

[[record]]
molecule = "COc1ccc(-c2nc(-c3ccc(-c4cccc(Cl)c4)o3)[nH]c2-c2ccc(OC)cc2)cc1"
endpoint = "cell viability"
observed_measurement = "97.2%"

[[record]]
molecule = "c1ccc([C@H]2CNCc3ccccc32)cc1 [4-phenyl-1,2,3,4-tetrahydroisoquinoline]"
endpoint = "cell viability"
observed_measurement = "92.3%"

[[record]]
molecule = "O=C(CCCN1CCC(O)(c2ccc(Cl)cc2)CC1)c1ccc(F)cc1"
endpoint = "cell viability"
observed_measurement = "92.6%"

[[record]]
molecule = "CCc1c(C(=O)NCCc2ccc(N3CCCCC3)cc2)[nH]c2ccc(Cl)cc12"
endpoint = "cell viability"
observed_measurement = "93.4%"

[[record]]
molecule = "COc1ccc(-c2sc(NC(=O)C(C)(C)C)nc2C)cc1S(=O)(=O)Nc1ccc(O)cc1"
endpoint = "cell viability"
observed_measurement = "102%"

[[record]]
molecule = "O=C(CCCc1ccc(-c2ccccc2F)cc1)Nc1ccc(O)cc1"
endpoint = "cell viability"
observed_measurement = "99%"

[[record]]
molecule = "CC1(C)[C@@H](OC(=O)CCC(=O)O)CC[C@]2(C)[C@H]3C(=O)C=C4[C@@H]5C[C@@](C)(C(=O)O)CC[C@]5(C)CC[C@@]4(C)[C@]3(C)CC[C@@H]12 [CARBENOXOLONE SODIUM]"
endpoint = "cell viability"
observed_measurement = "92.8%"

[[record]]
molecule = "O=C(O)c1ccccc1C(=O)Nc1ccc(-c2ccccc2)cc1"
endpoint = "cell viability"
observed_measurement = "105%"

[[record]]
molecule = "Cc1ccc(Cl)c(OC[C@H](O)CNC(C)C)c1"
endpoint = "cell viability"
observed_measurement = "103%"

[[record]]
molecule = "OC(CNCC(O)C1CCc2cc(F)ccc2O1)C1CCc2cc(F)ccc2O1 (configuration not stated)"
endpoint = "cell viability"
observed_measurement = "103%"

[[record]]
molecule = "COC(=O)Nc1ccc(-c2nc(N3CCOCC3)c3cnn(C4CCN(C(=O)OC)CC4)c3n2)cc1"
endpoint = "cell viability"
observed_measurement = "95.8%"

[[record]]
molecule = "CCCCc1oc2ccc(NS(C)(=O)=O)cc2c1C(=O)c1ccc(OCCCN(CCCC)CCCC)cc1"
endpoint = "cell viability"
observed_measurement = "108%"

[[record]]
molecule = "CCCC(=O)Nc1ccc(OCC(O)CNC(C)C)c(C(C)=O)c1 (configuration not stated)"
endpoint = "cell viability"
observed_measurement = "104%"

[[record]]
molecule = "Nc1cccc2c(=O)[nH][nH]c(=O)c12 [monosodium-alpha-luminol]"
endpoint = "cell viability"
observed_measurement = "97.4%"

[[record]]
molecule = "O=c1cc(N2CCOCC2)oc2c1ccc1ccccc12"
endpoint = "cell viability"
observed_measurement = "102%"


---

tested on: HepG2; assay: relative viability EC50 (midpoint between 100% and the lowest measured viability); higher = less toxic; conditions: 72 h
Endpoint: relative viability EC50

[[record]]
compound = "CN1C[C@H](CNC(=O)OCc2ccccc2)C[C@@H]2c3cccc4c3c(cn4C)C[C@H]21"
target_desc = "HepG2"
endpoint = "relative viability EC50"
observed_measurement = "> 10 µM"

[[record]]
compound = "O=C(OOC(=O)c1ccccc1)c1ccccc1 [benzoyl-peroxide]"
target_desc = "HepG2"
endpoint = "relative viability EC50"
observed_measurement = "> 10 µM"

[[record]]
compound = "CCCCCCCC/C=C\\CCCCCCCC(=O)NCCO [oleoylethanolamide]"
target_desc = "HepG2"
endpoint = "relative viability EC50"
observed_measurement = "> 10 µM"

[[record]]
compound = "COc1cc(N)c(Cl)cc1C(=O)OCCN1CCCCC1"
target_desc = "HepG2"
endpoint = "relative viability EC50"
observed_measurement = "> 10 µM"

[[record]]
compound = "OC[C@H]1O[C@@H](n2cnc3c(N[C@H]4CCC[C@@H]4O)ncnc32)[C@H](O)[C@@H]1O"
target_desc = "HepG2"
endpoint = "relative viability EC50"
observed_measurement = "> 10 µM"

[[record]]
compound = "O=C(O)COc1ccc(OCCNC[C@H](O)COc2ccccc2)cc1"
target_desc = "HepG2"
endpoint = "relative viability EC50"
observed_measurement = "> 10 µM"

[[record]]
compound = "CCC(C)(Oc1ccc(C2(c3ccc(OC(C)(CC)C(=O)O)cc3)CCCCC2)cc1)C(=O)O (stereo unspecified) [clinofibrate]"
target_desc = "HepG2"
endpoint = "relative viability EC50"
observed_measurement = "> 10 µM"

[[record]]
compound = "O=C1NN(C(=O)Nc2ccc(Br)cc2)[C@@H](c2ccccc2)[C@@H]1c1ccccc1"
target_desc = "HepG2"
endpoint = "relative viability EC50"
observed_measurement = "> 10 µM"

[[record]]
compound = "O=C(O)CCCO [SODIUM OXYBATE]"
target_desc = "HepG2"
endpoint = "relative viability EC50"
observed_measurement = "> 10 µM"

[[record]]
compound = "Cc1cccc(/C=N/Nc2cc(N3CCOCC3)n3nc(-c4ccncc4)cc3n2)c1"
target_desc = "HepG2"
endpoint = "relative viability EC50"
observed_measurement = "0.24 µM"

[[record]]
compound = "O=C(Nc1cccnn1)N1CCC(=Cc2cccc(Oc3ccc(C(F)(F)F)cn3)c2)CC1"
target_desc = "HepG2"
endpoint = "relative viability EC50"
observed_measurement = "2.33 µM"

[[record]]
compound = "O=C(NCc1ccc(Oc2ccccc2)cc1)c1nc(-c2cc(Br)c(O)c(Br)c2)no1"
target_desc = "HepG2"
endpoint = "relative viability EC50"
observed_measurement = "> 10 µM"

[[record]]
compound = "N[C@@H](CC(=O)N1CCn2c(nnc2C(F)(F)F)C1)Cc1cc(F)c(F)cc1F"
target_desc = "HepG2"
endpoint = "relative viability EC50"
observed_measurement = "> 10 µM"

[[record]]
compound = "O=C(O)c1ccc(N[C@@H]2O[C@H](CO)[C@@H](O)[C@H](O)[C@@H]2O)cc1"
target_desc = "HepG2"
endpoint = "relative viability EC50"
observed_measurement = "> 10 µM"

[[record]]
compound = "NC(=O)N1c2ccccc2CC(=O)c2ccccc21 [oxcarbazepine]"
target_desc = "HepG2"
endpoint = "relative viability EC50"
observed_measurement = "> 10 µM"

[[record]]
compound = "CC[C@@]1(O)C(=O)OCc2c1cc1n(c2=O)Cc2c-1nc1cc(F)c(C)c3c1c2[C@@H](N)CC3 [exatecan-mesylate]"
target_desc = "HepG2"
endpoint = "relative viability EC50"
observed_measurement = "0.0038 µM"

[[record]]
compound = "Cc1nccn1CCC(C(N)=O)(c1ccccc1)c1ccccc1"
target_desc = "HepG2"
endpoint = "relative viability EC50"
observed_measurement = "> 10 µM"

[[record]]
compound = "COc1cccc2c1C(=O)c1c(O)c3c(c(O)c1C2=O)C[C@@](O)(/C(CO)=N/NC(=O)CCCCCN1C(=O)C=CC1=O)C[C@@H]3O[C@H]1C[C@H](N)[C@H](O)[C@H](C)O1"
target_desc = "HepG2"
endpoint = "relative viability EC50"
observed_measurement = "0.102 µM"

[[record]]
compound = "O=c1ncccn1[C@@H]1O[C@H](CO)[C@@H](O)[C@H]1O"
target_desc = "HepG2"
endpoint = "relative viability EC50"
observed_measurement = "> 10 µM"

[[record]]
compound = "N#CC1(c2ccc(NC(=O)c3cccnc3NCc3ccncc3)cc2)CCCC1"
target_desc = "HepG2"
endpoint = "relative viability EC50"
observed_measurement = "> 10 µM"

[[record]]
compound = "CN1C(C)(C)CCCC1(C)C"
target_desc = "HepG2"
endpoint = "relative viability EC50"
observed_measurement = "> 10 µM"

[[record]]
compound = "CCN[C@H]1C[C@H](C)S(=O)(=O)c2sc(S(N)(=O)=O)cc21 [dorzolamide]"
target_desc = "HepG2"
endpoint = "relative viability EC50"
observed_measurement = "> 10 µM"

[[record]]
compound = "CC[C@H]1[C@@H](O)[C@@H]2[C@H](CC[C@]3(C)[C@@H]([C@H](C)CCOS(=O)(=O)O)CC[C@@H]23)[C@@]2(C)CC[C@@H](O)C[C@@H]12"
target_desc = "HepG2"
endpoint = "relative viability EC50"
observed_measurement = "> 10 µM"

[[record]]
compound = "CCN(CC)CCO[C@H]1CC[C@@]2(C)C(=CC[C@@H]3[C@@H]2CC[C@]2(C)C(=O)CC[C@@H]32)C1"
target_desc = "HepG2"
endpoint = "relative viability EC50"
observed_measurement = "1.72 µM"

[[record]]
compound = "CCCCc1oc2ccc(NS(C)(=O)=O)cc2c1C(=O)c1ccc(OCCCN(CCCC)CCCC)cc1"
target_desc = "HepG2"
endpoint = "relative viability EC50"
observed_measurement = "3.13 µM"

[[record]]
compound = "CCOC(=O)Nc1ccc(NCc2c(C)cc(C)cc2C)cc1N"
target_desc = "HepG2"
endpoint = "relative viability EC50"
observed_measurement = "> 10 µM"

[[record]]
compound = "O=C(NCC(=O)N1CCCCC1)Nc1ccc2nnsc2c1"
target_desc = "HepG2"
endpoint = "relative viability EC50"
observed_measurement = "> 10 µM"

[[record]]
compound = "COc1ccsc1CNCC[C@@]1(c2ccccn2)CCOC2(CCCC2)C1"
target_desc = "HepG2"
endpoint = "relative viability EC50"
observed_measurement = "> 10 µM"

[[record]]
compound = "CC(C)Oc1ccc(-c2nc(-c3cccc4c3CC[C@H]4NCCC(=O)O)no2)cc1C#N"
target_desc = "HepG2"
endpoint = "relative viability EC50"
observed_measurement = "> 10 µM"

[[record]]
compound = "COc1ccc(CN2C(=O)C(=O)c3cc(OC(F)(F)F)ccc32)cc1"
target_desc = "HepG2"
endpoint = "relative viability EC50"
observed_measurement = "3.43 µM"

[[record]]
compound = "O=C(O)[C@H]1CN(CCCP(=O)(O)O)CCN1"
target_desc = "HepG2"
endpoint = "relative viability EC50"
observed_measurement = "> 10 µM"

[[record]]
compound = "NC(=O)[C@H]1CCS[C@@H]2C[C@]3(CCCN3C(=O)Cc3ccc(NC(=O)COc4ccc(Cl)cc4Cl)cc3)C(=O)N12"
target_desc = "HepG2"
endpoint = "relative viability EC50"
observed_measurement = "2.05 µM"

[[record]]
compound = "O[C@@H]1CO[C@H]2[C@@H]1OC[C@@H]2O [isosorbide]"
target_desc = "HepG2"
endpoint = "relative viability EC50"
observed_measurement = "> 10 µM"

[[record]]
compound = "CO[C@H]1CC=C2CCN3CCC4=C(CC(=O)OC4)[C@]23C1"
target_desc = "HepG2"
endpoint = "relative viability EC50"
observed_measurement = "> 10 µM"

[[record]]
compound = "CCn1cc(C(=O)O)c(=O)c2cnc(N3CCCC3)nc21"
target_desc = "HepG2"
endpoint = "relative viability EC50"
observed_measurement = "> 10 µM"

[[record]]
compound = "CCCCNc1ncc2c(-c3ccc(CN4CCN(C)CC4)cc3)cn([C@H]3CC[C@H](O)CC3)c2n1"
target_desc = "HepG2"
endpoint = "relative viability EC50"
observed_measurement = "1.02 µM"

